Entry source: patent US12630785B2

- protocol notes: Capsule perfume leakage in liquid fabric enhancer (LFE), headspace SPME GC/MS
- Format: physicochemical
- experimental parameters: PRM of Perfume 1 out of Example 10-1 capsules (Sample F, Perfume 1/IPM 40/60); LFE Composition 1
- Protocol: The testing of capsule leakage in liquid compositions (e.g., liquid fabric enhancer/“LFE” compositions and/or heavy-duty liquid/“HDL” detergents) is performed as follows. […] It is to be noted that the capsule sample and the total oil sample are not analyzed on the same day, as there is a need to prepare the total oil sample after the leakage sample has been removed from storage. […] After equilibrating, the samples are analyzed by GC/MS. […]
What Leakage (as %) after 1 week at 35° C. was measured for each of the following?
All answers are understood in %, so give the number only.

Which Leakage (as %) after 1 week at 35° C. reading was recorded for the molecule CC1=CC(C)C(C=O)CC1 (stereo not drawn) ? 22

Which Leakage (as %) after 1 week at 35° C. reading was recorded for the molecule CC(=O)OC1CC2CC1C1CC=CC21 (stereo not drawn) [Verdyl acetate] ? 17

Which Leakage (as %) after 1 week at 35° C. reading was recorded for the molecule "CC12CCC(CC1)C(C)(C)O2" ? 26

Which Leakage (as %) after 1 week at 35° C. reading was recorded for the molecule CCOC(=O)C(C)CC (stereo not drawn) [Ethyl 2-methyl butyrate] ? 28

Which Leakage (as %) after 1 week at 35° C. reading was recorded for the molecule CC(=O)OC1CCCCC1C(C)(C)C (stereo not drawn) [(2-tert-butylcyclohexyl) acetate] ? 20

Which Leakage (as %) after 1 week at 35° C. reading was recorded for the molecule CCC(C)CCCC(C)(C)O (stereo not drawn) [Tetrahydro myrcenol] ? 17

Which Leakage (as %) after 1 week at 35° C. reading was recorded for the molecule CCC(C)(O)CCCC(C)C (stereo not drawn) [Tetrahydro linalool] ? 18

Which Leakage (as %) after 1 week at 35° C. reading was recorded for the molecule CC(=O)O[C@@H]1C[C@H]2CC[C@]1(C)C2(C)C (racemic) [iso-Bornyl acetate] ? 19

Which Leakage (as %) after 1 week at 35° C. reading was recorded for the molecule CC(=O)OC1CCC(C(C)(C)C)CC1 (stereo not drawn) [(4-tert-butylcyclohexyl) acetate] ? 15
